Origin of measurements: ChEMBL document CHEMBL3433997

- tgt: Solute carrier family 2, facilitated glucose transporter member 1 (Homo sapiens)
- experimentDescription: ST_JUDE_LEISH: Cytotoxicity at 2uM final concentration against transgenic Leishmania Mexicana promastigotes LmGLUT1 that are glucose transport deficient and complemented with the human glucose transporter GLUT1. Activity is measured by DNA content using SYBR green in vitro
- Type: functional
endpoint: inhibition (%)

[[record]]
compound = "N#CCCN1CCN(Cc2cccc(-c3ccc(-c4nc5cc(C(F)(F)F)ccc5[nH]4)cc3)c2)CC1"
valueunits = "%"
assayvalue = 3.02

[[record]]
compound = "Cc1ccc(CON2C(=N)N=C(N)NC2(C)C)cc1C"
valueunits = "%"
assayvalue = 4.78

[[record]]
compound = "Cc1ccc(Nc2nc(C)cc(Nc3cccc(C#N)c3)n2)cc1"
valueunits = "%"
assayvalue = 42.3

[[record]]
compound = "CC(C)c1ccc2[nH]c(C(=O)NC3CCC(N4CCCc5ccc(C#N)cc5C4)CC3)cc2c1 (stereo not given)"
valueunits = "%"
assayvalue = 3.48

[[record]]
compound = "Fc1ccc2[nH]c(-c3ccc(-c4ccc(CNCc5cnn(-c6ccccc6)n5)cc4)cc3)nc2c1"
valueunits = "%"
assayvalue = 1.68

[[record]]
compound = "COc1cccc(Nc2nc(C)cc(NCc3ccc(-c4c(C)noc4C)cc3)n2)c1"
valueunits = "%"
assayvalue = 14.8

[[record]]
compound = "C[C@@H](N/C(=N\\c1ccccc1Cl)Nc1ccc(C#N)cc1O)c1ccc(Br)cc1"
valueunits = "%"
assayvalue = 6.22

[[record]]
compound = "COCCNC(=O)C(CNC(=O)c1ccc2c(c1)OCO2)NC(=O)c1ccc(-c2ccccc2)cc1 (stereo not given)"
valueunits = "%"
assayvalue = 3.8

[[record]]
compound = "O=C(Cc1ccc[n+]([O-])c1)Nc1ccc(-c2cccc(-c3nc4cc(C(F)(F)F)ccc4[nH]3)c2)cc1"
valueunits = "%"
assayvalue = 1.49

[[record]]
compound = "NC(Cc1cccc(I)c1)C(=O)NCC1CCCO1 (stereo not given)"
valueunits = "%"
assayvalue = 1.94

[[record]]
compound = "O=C(Nc1cccc(CN2CCCN(Cc3ccccc3)CC2)c1)c1ccc(Cl)c(Cl)c1"
valueunits = "%"
assayvalue = 4.45

[[record]]
compound = "Cc1cc(N[C@@H](Cc2ccccc2)C(=O)NCc2cccc(F)c2)nc(NCCc2cccnc2)n1"
valueunits = "%"
assayvalue = 10.4

[[record]]
compound = "O=C(Nc1ccc(Cl)c(C(F)(F)F)c1)c1ccc(C(=O)Nc2ccc(Cl)c(C(F)(F)F)c2)cc1"
valueunits = "%"
assayvalue = -2.43

[[record]]
compound = "O=C(NC1CCC(N2CCC(Cc3ccc(F)cc3)CC2)CC1)c1cc2ccccc2[nH]1 (stereo not given)"
valueunits = "%"
assayvalue = 0.56

[[record]]
compound = "O=C(Nc1cccc(-c2ccc(CN3CCCC3)cc2)c1)c1ccc(Cl)cc1"
valueunits = "%"
assayvalue = 3.03

[[record]]
compound = "CCNc1cc(C)nc(Nc2ccc(NC(=O)C3CCCC3)cc2)n1"
valueunits = "%"
assayvalue = 8.61

[[record]]
compound = "CC(C)CCCC(C)NC[C@@H](O)[C@H](Cc1ccccc1)NC(=O)c1cc(N2CCCC2=O)cc(N(c2ccccc2)S(C)(=O)=O)c1 (stereo not given in full)"
valueunits = "%"
assayvalue = 1.85

[[record]]
compound = "NC(=O)C1CCN(Cc2cccc(-c3ccc(-c4nc5cc(C(F)(F)F)ccc5[nH]4)cc3)c2)CC1"
valueunits = "%"
assayvalue = -1.36

[[record]]
compound = "O=C(/C=C/c1cccc2ccccc12)NCCCCCN1CCC(c2c[nH]c3ccccc23)CC1"
valueunits = "%"
assayvalue = 0.55

[[record]]
compound = "Fc1ccccc1C=NNc1ccnc2cc(Cl)ccc12"
valueunits = "%"
assayvalue = 5.84


###

- tgt: Solute carrier family 2, facilitated glucose transporter member 1 (Homo sapiens) (UniProt P11166)
- Sequence (P11166 whole entry): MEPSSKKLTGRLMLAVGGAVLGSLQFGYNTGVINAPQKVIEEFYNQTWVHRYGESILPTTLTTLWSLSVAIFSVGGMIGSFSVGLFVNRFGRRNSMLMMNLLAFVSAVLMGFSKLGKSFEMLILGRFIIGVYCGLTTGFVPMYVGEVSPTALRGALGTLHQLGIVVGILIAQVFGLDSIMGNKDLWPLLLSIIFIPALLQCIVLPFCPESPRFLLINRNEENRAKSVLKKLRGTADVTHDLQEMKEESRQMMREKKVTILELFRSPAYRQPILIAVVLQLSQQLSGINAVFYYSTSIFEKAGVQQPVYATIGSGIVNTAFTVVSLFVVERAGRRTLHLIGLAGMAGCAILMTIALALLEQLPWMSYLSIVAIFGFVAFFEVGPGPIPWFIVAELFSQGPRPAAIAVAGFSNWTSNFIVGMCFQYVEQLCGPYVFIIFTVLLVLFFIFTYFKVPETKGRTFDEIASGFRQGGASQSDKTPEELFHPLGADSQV
- experimentDescription: ST_JUDE_LEISH: Cytotoxicity at 2uM final concentration against transgenic Leishmania Mexicana promastigotes LmGLUT1 that are glucose transport deficient and complemented with the human glucose transporter GLUT1. Activity is measured by DNA content using SYBR green in vitro
- Assay type: functional
endpoint: inhibition (%)

[[record]]
compound = "CCc1sc(-c2ccc(C(C)(C)C)cc2)nc1C(=O)NCCCN1CCCC1=O"
assayvalue = -1.44

[[record]]
compound = "COc1ccc(-c2ccc(NC(=O)c3ccc(F)cc3)cc2)cc1CN1CCCN(C)CC1"
assayvalue = 6.26

[[record]]
compound = "CCc1sc(CN(CCCNc2cc(=O)c3ccccc3[nH]2)Cc2sc(CC)c(Br)c2-c2ccsc2)c(-c2ccsc2)c1Br"
assayvalue = 3.98

[[record]]
compound = "COc1cc2c(cc1OCCN1CCC(N3CCCCC3)CC1)N(C(=O)/C=C/c1ccccc1Cl)CC2"
assayvalue = 0.24

[[record]]
compound = "COc1ccc2nccc([C@@H](O)CN3CCC(NC(=O)C(c4ccsc4)N4CCN(c5ccccc5)CC4)CC3)c2c1 (some centres undefined)"
assayvalue = 4.17

[[record]]
compound = "CC(C)(C)c1ccc(CN2CCC(CNC(=O)c3cc(-c4cccc(F)c4)cs3)C2)cc1 (centres undefined)"
assayvalue = 4.3

[[record]]
compound = "COc1ccc(-n2nc(C(=O)NCCC3=CCCCC3)c3ccccc3c2=O)cc1"
assayvalue = 0.62

[[record]]
compound = "O=C(/C=C/c1ccc(Cl)c(Cl)c1)NCCCCCN1CC[C@H](NC(=O)c2ccc3c(c2)OCO3)C1"
assayvalue = 5.7

[[record]]
compound = "COc1cc(NC(=O)c2cc([N+](=O)[O-])ccc2NC(=O)CNC2CCCC(C)C2C)cc(OC)c1 (centres undefined)"
assayvalue = 12

[[record]]
compound = "Nc1nc(N)c2c(ccn2Cc2cc3c(cc2Cl)OCO3)n1"
assayvalue = 4.12

[[record]]
compound = "CCOc1ccc2[nH]c(C)cc(=NN=Cc3ccccc3F)c2c1"
assayvalue = 4

[[record]]
compound = "O=C(NCCc1cccc(F)c1)c1cc(Br)cc(N2CCN(c3ccncc3)CC2)c1"
assayvalue = 6.76

[[record]]
compound = "CCCCN1CCN(c2cc(NS(=O)(=O)c3ccc(C(=O)Nc4ccc(C(F)(F)F)cc4)cc3)ccc2OC)CC1"
assayvalue = 3.79

[[record]]
compound = "CC(Cc1ccc(NC(=O)c2ccc(CNCc3ccccc3)cc2)cc1)N(CCc1cccc(Cl)c1)C(=O)OC(C)(C)C (centres undefined)"
assayvalue = 6.08

[[record]]
compound = "O=C(Nc1cccnc1)c1ccc(-c2cc3ccncc3cc2OC2CCNCC2)s1"
assayvalue = 2.38

[[record]]
compound = "Cc1cc(NCc2ccc(F)cc2)nc2cc(O)ccc12"
assayvalue = 2.81

[[record]]
compound = "CNCCNCc1ccc(-c2cccc(-c3nc4cc(F)ccc4[nH]3)c2)cc1"
assayvalue = 2.53

[[record]]
compound = "COc1cc(C(=O)N2CCOC(CCN3CCC(c4ccc(Cl)cc4)CC3)(c3ccc(Cl)c(Cl)c3)C2)cc(OC)c1OC (centres undefined)"
assayvalue = 12.4

[[record]]
compound = "CN1CCC(N(Cc2ccc(N3CCN(Cc4c[nH]c5ccc(Cl)cc45)CC3)nc2)C2CC2)CC1"
assayvalue = 9.81


###

- tgt: Hexose transporter 1 (Plasmodium falciparum) (UniProt O97467)
- experimentDescription: ST_JUDE_LEISH: Cytotoxicity at 2uM final concentration against transgenic Leishmania Mexicana promastigotes LmPfHT that are glucose transport deficient and complemented with the Plasmodium falciparum hexose transporter. Activity is measured by DNA content using SYBR green in vitro
- Format: functional
Items are presented alongside their recorded inhibition.
endpoint: inhibition (%)

[[record]]
compound = "O=C(NCCNc1ccnc(Nc2ccc(F)cc2)n1)c1cc2ccccc2s1"
assayvalue = 7.62

[[record]]
compound = "CCOC(=O)Nc1cc(-c2csc(N=C(N)N)n2)cc([N+](=O)[O-])c1"
assayvalue = 0.58

[[record]]
compound = "O=C(Nc1ccc(OC2CCN(Cc3ccc(F)cc3)C2)c(Cl)c1)c1ccsc1 (centres undefined)"
assayvalue = 3.33

[[record]]
compound = "C[C@@H](COc1ccccc1)NCC(O)c1ccc([N+](=O)[O-])c(OCc2ccccc2)c1 (some centres undefined)"
assayvalue = 0.96

[[record]]
compound = "CC(C)NCc1cccc(-c2ccc(-c3nc4cc(C(F)(F)F)ccc4[nH]3)cc2)c1"
assayvalue = 6.19

[[record]]
compound = "CNc1ccc(CNCc2cccc(-c3ccc(-c4nc5cc(C(F)(F)F)ccc5[nH]4)cc3)c2)cc1"
assayvalue = 1.48

[[record]]
compound = "O=C(CN1CCN(S(=O)(=O)C=Cc2ccccc2)CC1)Nc1cc(C(F)(F)F)ccc1Cl"
assayvalue = 7.6

[[record]]
compound = "COc1cc(C(=O)NC2CCN(Cc3ccccc3)CC2)ccc1-c1nc2c(Cl)cc(C(F)(F)F)cc2[nH]1"
assayvalue = 3.32

[[record]]
compound = "O=C(Nc1cccc(-c2cccc(-c3nc4cc(F)ccc4[nH]3)c2)c1)c1ccoc1"
assayvalue = 1.64


###

- tgt: Solute carrier family 2, facilitated glucose transporter member 1 (Homo sapiens) (UniProt P11166)
- experimentDescription: ST_JUDE_LEISH: Cytotoxicity at 2uM final concentration against transgenic Leishmania Mexicana promastigotes LmGLUT1 that are glucose transport deficient and complemented with the human glucose transporter GLUT1. Activity is measured by DNA content using SYBR green in vitro
- Type: functional
endpoint: inhibition (%)

[[record]]
compound = "c1cc(Cc2ccc(Nc3c4ccccc4nc4ccccc34)cc2)cc(Nc2c3ccccc3nc3ccccc23)c1"
assayvalue = 5.95

[[record]]
compound = "CN1CCN(CC(=O)Nc2cccc(-c3cccc(-c4nc5cc(C(F)(F)F)ccc5[nH]4)c3)c2)CC1"
assayvalue = 3.23

[[record]]
compound = "Cc1cccc2nc(-c3ccc(-c4ccc(CN5CCN(CCN6CCOCC6)CC5)cc4)cc3)[nH]c12"
assayvalue = 6.69

[[record]]
compound = "Oc1ccccc1-c1nc2cccnc2n1CCc1cccc(C(F)(F)F)c1"
assayvalue = 4.81

[[record]]
compound = "Cc1c2c(nn1-c1ccccc1)C(c1ccccc1)N(c1ccccc1)C2=O (centres undefined)"
assayvalue = -0.43

[[record]]
compound = "CCCC(CNCc1cccc(I)c1)CNc1cc(=O)c2ccccc2[nH]1 (centres undefined)"
assayvalue = 1.04

[[record]]
compound = "COc1ccc2ncc(C#N)c(CCN3CCC(NCc4cnc5c(c4)OCCO5)CC3)c2n1"
assayvalue = 11.4

[[record]]
compound = "CN(C)CCNC(=O)c1ccc(-c2cnc3ccc(NCc4ccc(Cl)c(Cl)c4)nn23)cc1"
assayvalue = -1.43

[[record]]
compound = "Cc1c(CNCCN2CCCCC2)c(C(=O)O)c(C)n1Cc1ccc(Cl)cc1"
assayvalue = -0.09

